- Test system: colon cell line (HT-29)
- testProtocol: in-vitro neutral red cytotoxicity assay, HT-29
- Assay type: cell-based
- measurementContext: Homo sapiens, mean ± SD of three replicates
Listed molecules paired with reported IC50
Write down the numeric answer in µg/mL and omit the unit.

1) COc1cccc2c1C(=O)c1c(O)c3c(c(O)c1C2=O)C[C@@](O)(C(=O)CO)C[C@@H]3O[C@H]1C[C@H](N)[C@H](O)[C@H](C)O1 [Doxo *, Doxorubicin, reference compound] | 0.33
2) C=C1CCC2C(C)(C)CCC[C@]2(C)C1C/C=C(/C=O)CC=O (stereo partly shown) [Compound 1, (E)-labda-8(17),12-dien-15,16-dial] | 6.3

Response field IC50 (colon cell line (HT-29)) for item C=C1CC[C@H]2C(C)(C)CCC[C@]2(C)[C@H]1CC=C(C=O)CC(=O)O (stereo in doubt) [Compound 3, zerumin A] : 14.9

###

- Test system: hormone-dependent breast cell line (MCF-7)
- testProtocol: in-vitro neutral red cytotoxicity assay, MCF-7
- Format: cell-based
- measurementContext: Homo sapiens, MCF7, mean ± SD of three replicates
reportedEndpoint: IC50

Below, 3 compounds whose answers are already recorded.
1. COc1cccc2c1C(=O)c1c(O)c3c(c(O)c1C2=O)C[C@@](O)(C(=O)CO)C[C@@H]3O[C@H]1C[C@H](N)[C@H](O)[C@H](C)O1 [Doxo *, Doxorubicin, reference compound] | 0.05 µg/mL
2. C=C1CCC2C(C)(C)CCC[C@]2(C)C1/C=C/C(C)=O (stereo partly shown) | > 100 µg/mL
3. C=C1CC[C@H]2C(C)(C)CCC[C@]2(C)[C@H]1CC=C(C=O)CC(=O)O (stereo in doubt) | 8.7 µg/mL

As a next step, examine the compound that follows.
Response field IC50 (hormone-dependent breast cell line (MCF-7)) for item C=C1CCC2C(C)(C)CCC[C@]2(C)C1C/C=C(/C=O)CC=O (stereo partly shown) [Compound 1, (E)-labda-8(17),12-dien-15,16-dial] : 4.3 µg/mL

###

- System: non-cancer human fibroblast cell line (MRC-5)
- testProtocol: in-vitro neutral red cytotoxicity assay, MRC-5
- measurementContext: MRC5, read-out: IC50 values, MRC-5
reportedEndpoint: IC50 (µg/mL)
Write down the numeric answer in µg/mL and omit the unit.

Below, 2 molecules whose answers are already recorded.
1) C=C1CCC2C(C)(C)CCC[C@]2(C)C1C/C=C(/C=O)CC=O (stereo partly shown) [Compound 1, (E)-labda-8(17),12-dien-15,16-dial] | 8.9
2) COc1cccc2c1C(=O)c1c(O)c3c(c(O)c1C2=O)C[C@@](O)(C(=O)CO)C[C@@H]3O[C@H]1C[C@H](N)[C@H](O)[C@H](C)O1 [Doxo *, Doxorubicin, reference compound] | 0.4

As a next step, examine the molecule that follows.
So, C=C1CC[C@H]2C(C)(C)CCC[C@]2(C)[C@H]1CC=C(C=O)CC(=O)O (stereo in doubt) ? Its IC50 was 16.2
